Data origin: patent US9624224B2

# Subject Of Test: UniProt:P52333
# Sequence (P52333 1-1124): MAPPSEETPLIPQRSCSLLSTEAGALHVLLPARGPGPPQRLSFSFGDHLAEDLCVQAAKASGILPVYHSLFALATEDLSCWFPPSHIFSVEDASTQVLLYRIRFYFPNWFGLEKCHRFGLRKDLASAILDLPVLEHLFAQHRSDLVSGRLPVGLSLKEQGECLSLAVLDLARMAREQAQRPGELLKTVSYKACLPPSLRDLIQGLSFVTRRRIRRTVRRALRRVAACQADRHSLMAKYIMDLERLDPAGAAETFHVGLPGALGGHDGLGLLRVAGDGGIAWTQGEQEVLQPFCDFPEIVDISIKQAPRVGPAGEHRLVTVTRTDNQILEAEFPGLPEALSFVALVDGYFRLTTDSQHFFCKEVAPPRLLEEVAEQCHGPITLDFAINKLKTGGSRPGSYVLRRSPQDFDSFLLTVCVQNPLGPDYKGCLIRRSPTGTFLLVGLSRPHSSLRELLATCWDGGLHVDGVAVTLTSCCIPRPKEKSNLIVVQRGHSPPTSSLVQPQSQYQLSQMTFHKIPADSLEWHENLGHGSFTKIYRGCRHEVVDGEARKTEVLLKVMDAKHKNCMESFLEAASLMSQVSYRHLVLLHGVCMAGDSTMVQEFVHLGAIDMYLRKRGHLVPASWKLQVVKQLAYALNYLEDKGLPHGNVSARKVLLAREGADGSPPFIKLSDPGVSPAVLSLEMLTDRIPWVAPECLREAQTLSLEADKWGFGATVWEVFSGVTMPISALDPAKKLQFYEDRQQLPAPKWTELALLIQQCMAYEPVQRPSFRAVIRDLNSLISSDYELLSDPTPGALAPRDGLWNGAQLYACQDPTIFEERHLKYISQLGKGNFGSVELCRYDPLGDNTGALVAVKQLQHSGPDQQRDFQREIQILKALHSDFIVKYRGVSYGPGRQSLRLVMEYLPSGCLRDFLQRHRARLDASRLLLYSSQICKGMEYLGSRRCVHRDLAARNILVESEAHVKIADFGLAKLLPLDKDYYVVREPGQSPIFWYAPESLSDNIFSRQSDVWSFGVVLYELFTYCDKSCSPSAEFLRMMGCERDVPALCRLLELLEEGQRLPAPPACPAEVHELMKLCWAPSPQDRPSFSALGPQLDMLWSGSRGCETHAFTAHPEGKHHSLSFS
pIC50: −log10 of the molar value.
Let's look at some compounds and their measured pIC50.

{"Mol Smiles": "CN(C/C=C/C(=O)N1CC[C@@H](n2nc(-c3ccc(C(=O)Nc4ncc(C#N)s4)cc3)c3c(N)ncnc32)C1)C1CC1", "Subject Of Test": "UniProt:P52333", "pIC50": "> 9.00"}
{"Mol Smiles": "CN(C/C=C/C(=O)N1CC[C@@H](n2nc(-c3ccc(C(=O)Nc4ncc(C5CC5)s4)cc3)c3c(N)ncnc32)C1)C1CC1", "Subject Of Test": "UniProt:P52333", "pIC50": "> 9.00"}
{"Mol Smiles": "Cc1ccnc(NC(=O)c2ccc(-c3nn([C@@H]4CCN(C(=O)/C=C/CN(C)C)C4)c4ncnc(N)c34)cc2)c1", "Subject Of Test": "UniProt:P52333", "pIC50": "< 5.00"}
{"Mol Smiles": "Cc1ccnc(NC(=O)c2ccc(-c3nn([C@@H]4CCN(C(=O)/C=C/CNC5CC5)C4)c4ncnc(N)c34)cc2)c1", "Subject Of Test": "UniProt:P52333", "pIC50": "< 5.00"}
{"Mol Smiles": "Cc1ccnc(NC(=O)c2ccc(-c3nn([C@H]4CC[C@H](NC(=O)/C=C/CN(C)C)CC4)c4ncnc(N)c34)cc2)c1", "Subject Of Test": "UniProt:P52333", "pIC50": "< 5.00"}
{"Mol Smiles": "CC#CC(=O)N[C@H]1CC[C@H](n2nc(-c3ccc(C(=O)Nc4cc(C(F)(F)F)ccn4)cc3)c3c(N)ncnc32)CC1", "Subject Of Test": "UniProt:P52333", "pIC50": "< 5.00"}
{"Mol Smiles": "CN(C/C=C/C(=O)N[C@H]1CC[C@H](n2nc(-c3ccc(C(=O)Nc4cc(C(F)(F)F)ccn4)cc3)c3c(N)ncnc32)CC1)C1CC1", "Subject Of Test": "UniProt:P52333", "pIC50": "< 5.00"}

* * *

pIC50: −log10 of the molar value.
Here we list compounds with their recorded pIC50 when tested on BTK (Homo sapiens, UniProt Q06187).
Sequence (Q06187 whole entry): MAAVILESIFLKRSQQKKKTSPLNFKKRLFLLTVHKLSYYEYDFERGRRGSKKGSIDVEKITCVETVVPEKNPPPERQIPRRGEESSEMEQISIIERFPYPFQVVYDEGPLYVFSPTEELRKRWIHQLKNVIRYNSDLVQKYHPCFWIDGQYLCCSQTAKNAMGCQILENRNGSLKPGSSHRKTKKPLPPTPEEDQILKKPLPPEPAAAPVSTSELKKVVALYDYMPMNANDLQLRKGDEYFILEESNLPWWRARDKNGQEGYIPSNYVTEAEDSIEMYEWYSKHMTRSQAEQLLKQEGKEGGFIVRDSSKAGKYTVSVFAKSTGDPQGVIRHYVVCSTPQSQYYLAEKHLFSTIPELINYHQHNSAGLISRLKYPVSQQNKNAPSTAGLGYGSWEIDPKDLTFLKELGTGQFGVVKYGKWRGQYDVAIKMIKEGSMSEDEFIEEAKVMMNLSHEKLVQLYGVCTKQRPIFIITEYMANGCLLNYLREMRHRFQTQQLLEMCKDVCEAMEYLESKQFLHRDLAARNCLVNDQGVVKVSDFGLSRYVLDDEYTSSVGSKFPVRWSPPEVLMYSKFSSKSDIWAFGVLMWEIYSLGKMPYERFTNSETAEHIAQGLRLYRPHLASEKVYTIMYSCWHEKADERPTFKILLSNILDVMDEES
Property Label: pIC50

{"Mol Smiles": "Nc1ncnc2c1c(-c1ccc(C(=O)Nc3cc(C(F)(F)F)ccn3)cc1)nn2[C@@H]1CCN(C(=O)/C=C/CNC2CC2)C1", "Property Label": "pIC50", "Experimental Result": "> 9.00"}
{"Mol Smiles": "CC#CC(=O)N[C@H]1CC[C@H](n2nc(-c3ccc(C(=O)Nc4cc(C(F)(F)F)ccn4)cc3)c3c(N)ncnc32)CC1", "Property Label": "pIC50", "Experimental Result": "> 9.00"}
{"Mol Smiles": "CCCc1ccnc(NC(=O)c2ccc(-c3nn([C@@H]4CCN(C(=O)/C=C/CN(C)C5CC5)C4)c4ncnc(N)c34)cc2)c1", "Property Label": "pIC50", "Experimental Result": "> 9.00"}
{"Mol Smiles": "CN(C/C=C/C(=O)N1CC[C@@H](n2nc(-c3ccc(C(=O)Nc4ncc(C#N)s4)cc3)c3c(N)ncnc32)C1)C1CC1", "Property Label": "pIC50", "Experimental Result": "> 7.00"}
{"Mol Smiles": "CNC/C=C/C(=O)N1CC[C@@H](n2nc(-c3ccc(C(=O)Nc4cc(C(F)(F)F)ccn4)cc3)c3c(N)ncnc32)C1", "Property Label": "pIC50", "Experimental Result": "> 9.00"}
{"Mol Smiles": "CN(C)C/C=C/C(=O)N1CC[C@@H](n2nc(-c3ccc(C(=O)Nc4ccccn4)cc3)c3c(N)ncnc32)C1", "Property Label": "pIC50", "Experimental Result": "> 9.00"}

* * *

# Subject Of Test: EGFR (Homo sapiens)
# Sequence (P00533 25-1210, species assumed): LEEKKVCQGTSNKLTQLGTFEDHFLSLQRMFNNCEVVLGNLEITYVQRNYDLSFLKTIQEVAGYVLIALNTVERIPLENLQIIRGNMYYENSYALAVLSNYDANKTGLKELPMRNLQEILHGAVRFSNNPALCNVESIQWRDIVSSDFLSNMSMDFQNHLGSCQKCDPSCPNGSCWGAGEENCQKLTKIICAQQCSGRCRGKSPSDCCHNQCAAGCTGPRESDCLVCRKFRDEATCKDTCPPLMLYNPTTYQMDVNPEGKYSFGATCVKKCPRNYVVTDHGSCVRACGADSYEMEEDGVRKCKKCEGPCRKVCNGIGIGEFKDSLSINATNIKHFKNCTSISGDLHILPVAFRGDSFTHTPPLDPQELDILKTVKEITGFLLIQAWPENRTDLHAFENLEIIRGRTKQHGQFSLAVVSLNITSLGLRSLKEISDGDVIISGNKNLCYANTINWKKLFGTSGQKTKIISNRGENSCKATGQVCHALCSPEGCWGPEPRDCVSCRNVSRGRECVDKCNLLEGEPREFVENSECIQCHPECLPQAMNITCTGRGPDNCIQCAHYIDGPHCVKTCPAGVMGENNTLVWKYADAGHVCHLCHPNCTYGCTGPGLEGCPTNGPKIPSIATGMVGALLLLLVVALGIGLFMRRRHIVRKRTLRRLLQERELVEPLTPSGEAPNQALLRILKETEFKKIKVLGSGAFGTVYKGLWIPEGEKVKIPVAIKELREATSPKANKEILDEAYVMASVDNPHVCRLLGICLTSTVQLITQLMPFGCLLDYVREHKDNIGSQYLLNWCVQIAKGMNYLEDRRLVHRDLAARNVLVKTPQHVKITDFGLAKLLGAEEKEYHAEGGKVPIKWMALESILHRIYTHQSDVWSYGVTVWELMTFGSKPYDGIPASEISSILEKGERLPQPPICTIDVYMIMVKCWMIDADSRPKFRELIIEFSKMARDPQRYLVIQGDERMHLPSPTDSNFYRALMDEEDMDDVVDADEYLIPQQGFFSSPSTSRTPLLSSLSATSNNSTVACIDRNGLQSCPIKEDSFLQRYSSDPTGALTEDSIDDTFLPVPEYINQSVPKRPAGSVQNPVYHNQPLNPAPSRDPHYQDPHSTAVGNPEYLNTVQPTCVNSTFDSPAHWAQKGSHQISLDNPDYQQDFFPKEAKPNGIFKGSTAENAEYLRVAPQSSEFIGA
pIC50: −log10 of the molar value.
Recorded pIC50, one value per entry.

{"Mol Smiles": "CN(C/C=C/C(=O)N1CC[C@@H](n2nc(-c3ccc(C(=O)Nc4ccccn4)cc3)c3c(N)ncnc32)C1)C1CC1", "pIC50": "6.00 to 7.00"}
{"Mol Smiles": "CN(C/C=C/C(=O)N1CC[C@@H](n2nc(-c3ccc(C(=O)Nc4ncc(C#N)s4)cc3)c3c(N)ncnc32)C1)C1CC1", "pIC50": "> 7.00"}
{"Mol Smiles": "CN(C/C=C/C(=O)N1CC[C@@H](n2nc(-c3ccc(C(=O)Nc4ncco4)cc3)c3c(N)ncnc32)C1)C1CC1", "pIC50": "< 5.00"}
{"Mol Smiles": "CN(C/C=C/C(=O)N1CC[C@@H](n2nc(-c3ccc(C(=O)Nc4cc(C(F)(F)F)ccn4)cc3)c3c(N)ncnc32)C1)C1CC1", "pIC50": "6.00 to 7.00"}
{"Mol Smiles": "CN(C)C/C=C/C(=O)N1CC[C@@H](n2nc(-c3ccc(C(=O)Nc4ccccn4)cc3)c3c(N)ncnc32)C1", "pIC50": "6.00 to 7.00"}
{"Mol Smiles": "CN(C/C=C/C(=O)N1CC[C@@H](n2nc(-c3ccc(C(=O)Nc4nccs4)cc3)c3c(N)ncnc32)C1)C1CC1", "pIC50": "> 9.00"}
{"Mol Smiles": "CNC/C=C/C(=O)N1CC[C@@H](n2nc(-c3ccc(C(=O)Nc4cc(C(F)(F)F)ccn4)cc3)c3c(N)ncnc32)C1", "pIC50": "> 7.00"}
{"Mol Smiles": "COc1cc(-c2nn([C@@H]3CCN(C(=O)/C=C/CN(C)C4CC4)C3)c3ncnc(N)c23)ccc1C(=O)Nc1cc(C)ccn1", "pIC50": "5.00 to 6.00"}
{"Mol Smiles": "CN(C/C=C/C(=O)N1CC[C@@H](n2nc(-c3ccc(C(=O)Nc4ncc(C(F)(F)F)s4)cc3)c3c(N)ncnc32)C1)C1CC1", "pIC50": "6.00 to 7.00"}
{"Mol Smiles": "CCCc1cnc(NC(=O)c2ccc(-c3nn([C@@H]4CCN(C(=O)/C=C/CN(C)C5CC5)C4)c4ncnc(N)c34)cc2)s1", "pIC50": "6.00 to 7.00"}
{"Mol Smiles": "CCCc1ccnc(NC(=O)c2ccc(-c3nn([C@@H]4CCN(C(=O)/C=C/CN(C)C5CC5)C4)c4ncnc(N)c34)cc2)c1", "pIC50": "6.00 to 7.00"}
{"Mol Smiles": "CCc1cnc(NC(=O)c2ccc(-c3nn([C@@H]4CCN(C(=O)/C=C/CN(C)C5CC5)C4)c4ncnc(N)c34)cc2)s1", "pIC50": "6.00 to 7.00"}
{"Mol Smiles": "CC(C)c1ccnc(NC(=O)c2ccc(-c3nn([C@@H]4CCN(C(=O)/C=C/CN(C)C)C4)c4ncnc(N)c34)cc2)c1", "pIC50": "6.00 to 7.00"}
{"Mol Smiles": "CN(C/C=C/C(=O)N1CC[C@@H](n2nc(-c3ccc(C(=O)Nc4cc(C5CC5)ccn4)cc3)c3c(N)ncnc32)C1)C1CC1", "pIC50": "5.00 to 6.00"}
